Molecular target: Exportin-1 (Homo sapiens, UniProt O14980)
Sequence (O14980 whole entry): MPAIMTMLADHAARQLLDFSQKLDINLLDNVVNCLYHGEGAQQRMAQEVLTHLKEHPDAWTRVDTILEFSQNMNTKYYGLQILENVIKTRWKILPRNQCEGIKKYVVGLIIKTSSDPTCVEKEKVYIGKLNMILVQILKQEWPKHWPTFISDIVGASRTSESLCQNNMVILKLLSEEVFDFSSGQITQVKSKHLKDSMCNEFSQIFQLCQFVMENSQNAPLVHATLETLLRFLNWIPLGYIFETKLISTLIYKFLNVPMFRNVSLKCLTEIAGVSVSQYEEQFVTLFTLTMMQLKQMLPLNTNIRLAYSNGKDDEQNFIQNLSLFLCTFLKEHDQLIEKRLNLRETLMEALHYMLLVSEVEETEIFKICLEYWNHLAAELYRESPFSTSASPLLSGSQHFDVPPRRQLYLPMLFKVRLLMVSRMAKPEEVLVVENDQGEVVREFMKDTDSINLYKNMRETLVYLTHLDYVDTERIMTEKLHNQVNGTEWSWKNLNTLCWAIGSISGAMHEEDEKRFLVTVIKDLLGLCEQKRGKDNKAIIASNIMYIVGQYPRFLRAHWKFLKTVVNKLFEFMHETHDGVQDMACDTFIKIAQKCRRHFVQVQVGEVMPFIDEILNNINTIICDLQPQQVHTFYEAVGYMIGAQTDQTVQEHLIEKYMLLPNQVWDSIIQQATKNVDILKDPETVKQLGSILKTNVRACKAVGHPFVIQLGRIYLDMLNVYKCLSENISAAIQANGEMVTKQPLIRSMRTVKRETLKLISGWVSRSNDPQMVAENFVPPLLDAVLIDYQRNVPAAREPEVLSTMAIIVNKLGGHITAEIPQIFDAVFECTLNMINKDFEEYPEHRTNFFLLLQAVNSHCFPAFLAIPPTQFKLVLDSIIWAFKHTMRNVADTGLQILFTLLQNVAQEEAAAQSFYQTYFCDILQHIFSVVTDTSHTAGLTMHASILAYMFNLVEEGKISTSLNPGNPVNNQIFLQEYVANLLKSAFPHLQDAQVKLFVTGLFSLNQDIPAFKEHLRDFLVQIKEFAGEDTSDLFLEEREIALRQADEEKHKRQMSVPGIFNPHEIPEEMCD
Experiment: Inhibition of CRM1-mediated nucleocytoplasmic transport in human HeLa cells after 90 mins by immunofluorescence assay
The following compounds are shown together with reported IC50 values.
Measured Metric: IC50 (nM)

Smiles Structure	Measured Metric	Measurement
CCC(=C/C(C)C)/C=C/[C@@H]1OC(=O)C=C[C@@H]1C	IC50	25
C/C=C(\C)C[C@H](C)[C@@H](O)[C@H](C)C(=O)[C@H](C)/C=C(C)/C=C/C[C@@H](C)/C=C(\C=C\[C@H]1CC=CC(=O)O1)CC	IC50	10
CCC(=C/[C@H](C)C/C=C/C(C)=C/[C@@H](C)C(=O)[C@@H](C)[C@H](O)[C@@H](C)C/C(C)=C/C(=O)O)/C=C/[C@@H]1OC(=O)C=C[C@@H]1C	IC50	1

----------
Assay: Cytotoxicity against human MRC5 cells
Assay type: cell-based
Measured Metric: CC50

Compound	Measured Metric	Measurement
CCOC(=O)/C=C/C(C[C@@H]1CCNC1=O)NC(=O)[C@@H](CC(=O)[C@@H](NC(=O)c1cc(C)on1)C(C)C)Cc1ccc(F)cc1 (stereo partly specified)	CC50	> 100 µM

----------
Molecular target: Proto-oncogene tyrosine-protein kinase Src (Gallus gallus, UniProt P00523, S345C)
Assay: Inhibition of chicken c-Src S345C mutant (251 to 533 residues) expressed in Escherichia coli by fluorescence assay
Measured Metric: IC50 (nM)

Smiles Structure	Target Of Assay	Measured Metric	Measurement
C=CS(=O)(=O)Nc1ccc2ncnc(Nc3cccc(Br)c3)c2c1	Proto-oncogene tyrosine-protein kinase Src (Gallus gallus, UniProt P00523, S345C)	IC50	2
CN(C)C/C=C/C(=O)Nc1ccc2ncnc(Nc3cccc(Br)c3)c2c1	Proto-oncogene tyrosine-protein kinase Src (Gallus gallus, UniProt P00523, S345C)	IC50	240

----------
Property: pEC50; scope: individual compounds
Test system: rhinovirus B14
Experiment: Antiviral activity against rhinovirus serotype 14 infected in human H1HeLa cells after 2 days by XTT/PMS dye based assay
Assay type: functional, cell-based
Details: Rhinovirus B, H1-HeLa, 48 h
pEC50: −log10 of the molar value.
Measured Metric: pEC50

Smiles Structure	Target Of Assay	Bound Type	Measurement
CC(C)C[C@H](NC(=O)OCc1ccccc1)C(=O)N[C@@H](Cc1ccccc1)C(=O)N[C@H](/C=C/C(=O)N(C)C)CCC(N)=O	rhinovirus B14	=	4.25
CC(C)C[C@H](NC(=O)OCc1ccccc1)C(=O)N[C@@H](Cc1ccccc1)C(=O)N[C@H](/C=C/C(=O)N1CCOC1=O)CCC(N)=O	rhinovirus B14	=	5.80
CCNC(=O)/C=C/[C@H](CCC(N)=O)NC(=O)[C@H](Cc1ccccc1)NC(=O)[C@H](CC(C)C)NC(=O)OCc1ccccc1	rhinovirus B14	<	3.49
CC(C)C[C@H](NC(=O)OCc1ccccc1)C(=O)N[C@@H](Cc1ccccc1)C(=O)N[C@H](/C=C1\CCCOC1=O)CCC(N)=O	rhinovirus B14	=	4.80
CCN(CC)c1ccc(C(=O)/C=C/[C@H](CCC(N)=O)NC(=O)[C@H](Cc2ccccc2)NC(=O)[C@H](CC(C)C)NC(=O)OCc2ccccc2)cc1	rhinovirus B14	<	4.60
CC(C)C[C@H](NC(=O)OCc1ccccc1)C(=O)N[C@@H](Cc1ccccc1)C(=O)N[C@H](/C=C/C(=O)n1ccc2ccccc21)CCC(N)=O	rhinovirus B14	=	5.74

----------
Assay: Cytotoxicity against human H1HeLa cells after 2 days by XTT/PMS dye based assay
Type: cell-based, H1-HeLa
Measured Metric: CC50 at 48 h

Smiles Structure	Measurement
CC(C)C[C@H](NC(=O)OCc1ccccc1)C(=O)N[C@@H](Cc1ccccc1)C(=O)N[C@H](/C=C1\CCCOC1=O)CCC(N)=O	> 100 µM
CC(=O)/C=C/[C@H](CCC(N)=O)NC(=O)[C@H](Cc1ccccc1)NC(=O)[C@H](CC(C)C)NC(=O)OCc1ccccc1	60 µM
CC(C)C[C@H](NC(=O)OCc1ccccc1)C(=O)N[C@@H](Cc1ccccc1)C(=O)N[C@H](/C=C1\CCOC1=O)CCC(N)=O	> 320 µM
CC(C)C[C@H](NC(=O)OCc1ccccc1)C(=O)N[C@@H](Cc1ccccc1)C(=O)N[C@H](/C=C/C(=O)O)CCC(N)=O	> 100 µM
CC(C)C[C@H](NC(=O)OCc1ccccc1)C(=O)N[C@@H](Cc1ccccc1)C(=O)N[C@H](/C=C/C(=O)N(C)C)CCC(N)=O	> 100 µM
CC(C)C[C@H](NC(=O)OCc1ccccc1)C(=O)N[C@@H](Cc1ccccc1)C(=O)N[C@H](/C=C/C(=O)N1CC=CC1)CCC(N)=O	44 µM
CC(=O)N1CC/C(=C\[C@H](CCC(N)=O)NC(=O)[C@H](Cc2ccccc2)NC(=O)[C@H](CC(C)C)NC(=O)OCc2ccccc2)C1=O	> 100 µM

----------
Tested on: rhinovirus B14
Assay: Irreversible inhibition of human rhinovirus serotype 14 3C protease assessed as ratio of Kobs/I by spectrofluorimetric analysis
Catalogue of compounds with associated Ratio
Measured Metric: Ratio (M⁻¹ s⁻¹)

Smiles Structure	Measurement
CC(C)C[C@H](NC(=O)OCc1ccccc1)C(=O)N[C@@H](Cc1ccccc1)C(=O)N[C@H](/C=C/C(=O)c1ccc([N+](=O)[O-])cc1)CCC(N)=O	310000
CC(C)C[C@H](NC(=O)OCc1ccccc1)C(=O)N[C@@H](Cc1ccccc1)C(=O)N[C@H](/C=C1\CCOC1=O)CCC(N)=O	10900
CC(=O)N1CC/C(=C\[C@H](CCC(N)=O)NC(=O)[C@H](Cc2ccccc2)NC(=O)[C@H](CC(C)C)NC(=O)OCc2ccccc2)C1=O	156000
CCN(CC)c1ccc(C(=O)/C=C/[C@H](CCC(N)=O)NC(=O)[C@H](Cc2ccccc2)NC(=O)[C@H](CC(C)C)NC(=O)OCc2ccccc2)cc1	4500
CC(C)C[C@H](NC(=O)OCc1ccccc1)C(=O)N[C@@H](Cc1ccccc1)C(=O)N[C@H](/C=C/C(=O)N1CCOC1=O)CCC(N)=O	600000
COC(=O)/C=C\[C@H](CCC(N)=O)NC(=O)[C@H](Cc1ccccc1)NC(=O)[C@H](CC(C)C)NC(=O)OCc1ccccc1	2400

----------
# Lookup of reported pEC50 keyed by entry
Tested on: rhinovirus B14
Experiment: Antiviral activity against rhinovirus serotype 14 infected in human H1HeLa cells after 2 days by XTT/PMS dye based assay
Type: functional, cell-based
Conditions: Rhinovirus B, H1-HeLa, 48 h
pEC50: −log10 of the molar value.

Smiles Structure	Bound Type	pEC50
COC(=O)/C=C\[C@H](CCC(N)=O)NC(=O)[C@H](Cc1ccccc1)NC(=O)[C@H](CC(C)C)NC(=O)OCc1ccccc1	=	5.38
CC(=O)N1CC/C(=C\[C@H](CCC(N)=O)NC(=O)[C@H](Cc2ccccc2)NC(=O)[C@H](CC(C)C)NC(=O)OCc2ccccc2)C1=O	=	6.15
CC(=O)/C=C/[C@H](CCC(N)=O)NC(=O)[C@H](Cc1ccccc1)NC(=O)[C@H](CC(C)C)NC(=O)OCc1ccccc1	=	5.70
CCOC(=O)/C(F)=C/[C@H](CCC(N)=O)NC(=O)[C@H](Cc1ccccc1)NC(=O)[C@H](CC(C)C)NC(=O)OCc1ccccc1	<	3.49
CC(C)C[C@H](NC(=O)OCc1ccccc1)C(=O)N[C@@H](Cc1ccccc1)C(=O)N[C@H](/C=C/C(=O)c1ccc([N+](=O)[O-])cc1)CCC(N)=O	<	4.49
CC(C)C[C@H](NC(=O)OCc1ccccc1)C(=O)N[C@@H](Cc1ccccc1)C(=O)N[C@H](/C=C/C(=O)c1ccccc1)CCC(N)=O	=	5.40
COC(=O)/C=C/[C@H](CCC(N)=O)NC(=O)[C@H](Cc1ccccc1)NC(=O)[C@H](CC(C)C)NC(=O)OCc1ccccc1	=	5.89

----------
Tested on: rhinovirus B14
Test: Irreversible inhibition of human rhinovirus serotype 14 3C protease assessed as ratio of Kobs/I by spectrofluorimetric analysis
Measured Metric: Ratio (M⁻¹ s⁻¹)

Smiles Structure	Measured Metric	Measurement
COC(=O)/C=C/[C@H](CCC(N)=O)NC(=O)[C@H](Cc1ccccc1)NC(=O)[C@H](CC(C)C)NC(=O)OCc1ccccc1	Ratio	20000
CC(C)C[C@H](NC(=O)OCc1ccccc1)C(=O)N[C@@H](Cc1ccccc1)C(=O)N[C@H](/C=C/C(=O)n1ccc2ccccc21)CCC(N)=O	Ratio	53000
CC(C)C[C@H](NC(=O)OCc1ccccc1)C(=O)N[C@@H](Cc1ccccc1)C(=O)N[C@H](/C=C/C(=O)N1CC=CC1)CCC(N)=O	Ratio	8500

----------
Assay: Cytotoxicity against human H1HeLa cells after 2 days by XTT/PMS dye based assay
Type: cell-based, H1-HeLa

Smiles Structure	CC50 at 48 h
CCNC(=O)/C=C/[C@H](CCC(N)=O)NC(=O)[C@H](Cc1ccccc1)NC(=O)[C@H](CC(C)C)NC(=O)OCc1ccccc1	> 320 µM
COC(=O)/C=C/[C@H](CCC(N)=O)NC(=O)[C@H](Cc1ccccc1)NC(=O)[C@H](CC(C)C)NC(=O)OCc1ccccc1	> 320 µM
COC(=O)/C=C\[C@H](CCC(N)=O)NC(=O)[C@H](Cc1ccccc1)NC(=O)[C@H](CC(C)C)NC(=O)OCc1ccccc1	> 320 µM
CCOC(=O)/C(C)=C/[C@H](CCC(N)=O)NC(=O)[C@H](Cc1ccccc1)NC(=O)[C@H](CC(C)C)NC(=O)OCc1ccccc1	> 320 µM
CC(C)C[C@H](NC(=O)OCc1ccccc1)C(=O)N[C@@H](Cc1ccccc1)C(=O)N[C@H](/C=C/C(=O)N1CCOC1=O)CCC(N)=O	> 100 µM
